# assay.system: T1, Human TIM-3 Human Fc tagged protein (human, fluorescently labeled with HiLyte Fluor 555 (sites not given))
# T1 construct: Bought construct; also called TIM-3 protein tagged with human Fc; ACROBiosystems catalog no: TM3-H5258
# method.description: capture slide probed with labeled TIM-3-Fc;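 further: IgG from single CD138-enriched plasma cells, isolated from lymphocytes, immobilized on a derivatized glass slide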

binder	binding result
SCT-Fa129 (antibody, V domains shown, murine IgG) VH: QVQLQQPGAELVMPGASVKLSCKASGYTFTTYWMHWVKQRPGQGLEWIGEIDPSDSYTNYNQKFKGKATLTVDKSSSTAYMQLSSLTSEDSAVYYCARNYGSNYVGYFDYWGQGTTLTVSS VL: DIQLTQTTSSLSASLGDRVTINCRASQDISNYLNWYQQKPDGTVKLLIYYTSRLLSGVPSSFSGSGSGTDYSLTISSLEQEDIATYFCQQGKALPWTFGGGTKLEIK	binds
SCT-Fa185 (antibody, V domains shown, murine IgG) VH: QVQLQQSGAELVRPGTSVRVSCTASGYAFTNYLIEWVKQRPGQGLEWIGVISPGSGGTTYNEKFKGKATLTADKSSSTAYMQFSSLTSEDSAVYFCARSAYGHVFDYWGQGTTLTVSS VL: DIKMTQSPSSMYASLGERVTITCKASQDINSYLKWFQQKPGKSPKTLIYRANRLVDGVPSRFSGSGSGQDYSLTISSLEYEDMGIYYCLQYDEFPYTFGGGTKLEIK	binds
SCT-Fa102 (antibody, V domains shown, murine IgG) VH: QVQLKQSGAELVRPGTSVKLSCKASGYTLNDYYINWVKQRPGQGLEWIARIYPGNNNTYYNEKFKGKATLTAEKSSNTAYMQVSSLTSEDSAVYFCARGGSSVRVYYYAMDYWGQGTSVTVSS VL: DIQMNQSPSSLSASLGDTITITCHASQNINVWLSWYQQKPGNIPKLLIYKASNLHTGVPSRFSGSGSGTGFTLTISSLQPEDIATYYCQQGQSYPLTFGSGTKLEIK	binds

Ref: patent US20230279105A1
